Source: ChEMBL document CHEMBL5107957

biological target: UniProt P10415; assay: Binding affinity to human Bcl-2 assessed as inhibition constant incubated for 15 mins by competition fluorescence polarization assay
Sequence (P10415 whole entry): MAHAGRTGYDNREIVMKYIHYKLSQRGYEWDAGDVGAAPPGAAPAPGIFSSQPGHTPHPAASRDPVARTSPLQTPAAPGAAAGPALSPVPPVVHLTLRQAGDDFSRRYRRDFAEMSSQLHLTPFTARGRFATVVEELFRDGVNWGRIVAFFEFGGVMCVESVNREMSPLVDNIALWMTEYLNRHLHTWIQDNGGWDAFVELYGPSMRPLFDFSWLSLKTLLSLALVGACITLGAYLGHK

compound_structure: CCN(CC)C[C@@H](O)CNc1ccc(NC[C@H]2CO2)c2c1C(=O)c1ccccc1C2=O
system_under_test: UniProt P10415
Ki: 3.3 nM

---

assay: Binding affinity to recombinant Bcl-2 V113G mutant (unknown origin) using peptide probe incubated for 2 hrs by fluorescence based assay; parameters: species or system Homo sapiens

compound_structure: Cc1c(N(C(=O)c2cc(-c3cc(Cl)ccc3C(=O)N3Cc4ccccc4C[C@H]3CN3CCOCC3)n(C)c2C)c2ccc(O)cc2)cc(C#N)n1C
unit_of_measure: nM
Ki: 9.6
